- assay_remarks: recombinant barcode read abundance after kanamycin selection (control-corrected) (log10(CPM+1)); higher = more efficient recombination; sequences stand for … in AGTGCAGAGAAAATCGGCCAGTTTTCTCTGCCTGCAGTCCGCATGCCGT…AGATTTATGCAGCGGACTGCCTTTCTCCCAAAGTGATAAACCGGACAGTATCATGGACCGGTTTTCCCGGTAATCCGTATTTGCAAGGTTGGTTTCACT; site = the 11-nt target;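 note: IS621 recombinase and bridge RNA in Escherichia coli cells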
result_type: recombinant barcode read abundance (log10)
Please give the numeric answer without any surrounding text.

Which measured recombinant barcode read abundance (log10) value corresponds to GAGTTGCCTTGGGTTCTAACCTGTTGCCT (site GGGTTGCCTAG) ? 0.0448

Any idea what recombinant barcode read abundance (log10) was measured for AGGAGCCCTTGGGTTCTAACCTGTTGCTT (site AGGAGCCCTCA) ? 0.0777

# input sequence: TCTTCCACTTGGGTTCTAACCTGTTGCCT (site ACTTCCACTAG) ; wanted: its recombinant barcode read abundance (log10) 0.0827

Any idea what recombinant barcode read abundance (log10) was measured for ATAGCTACTTGGGTTCTAACCTGTTGCCT (site ATAGCGACTAG) ? 0.0534

Entry TTCAGGGCTTGGGTTCTAACCTGTTGCAG (site TTCAGGGCTCT) : reported recombinant barcode read abundance (log10) = ? 1.99

Param item = AAGCCAACTTGGGTTCTAACCTGTTGCCT (site AAGCAAACTAG) ; retrieve measured recombinant barcode read abundance (log10). 0.294

Consider the sequence shown here: CCGCCAGCTTGGGTTCTAACCTGTTGCCT (site CCGCCGGCTAG) What is its recorded recombinant barcode read abundance (log10)? 0.0999

I have this sequence here, CTGGTGTCTTGGGTTCTAACCTGTTGCCA (site CTGGTGTCTTG) , and I need its recorded recombinant barcode read abundance (log10). 1.12

So what's the measured recombinant barcode read abundance (log10) for this one? CCAGTAGCTTGGGTTCTAACCTGTTGCCT (site CCAGTAGCTAG) 0.52

What does the data say about its recombinant barcode read abundance (log10)? Entry: ACTCTACCTTGGGTTCTAACCTGTTGCTA (site ACTCTACCTTA) 1.12
